Attribution: PubChem BioAssay (NCI)

test system: RXF 393 renal; assay: NCI tumour cell line growth inhibition, 48 h
property: TGI

Below are worked cases with known answers.
{"columns": ["compound", "property", "result"],
 "data": [
  ["CN(C)c1ccc(/C=C2\\C[C@H]3[C@@H]4CCc5cc(OCCN6CCCC6)ccc5[C@H]4CC[C@]3(C)[C@H]2O)cc1", "TGI", "33.9 µM"],
  ["O=C1/C(=C/c2ccc(O)c(CN3CCCCC3)c2)CCC/C1=C\\c1ccc(O)c(CN2CCCCC2)c1", "TGI", "15.5 µM"],
  ["CCOC(NC(=O)CC)(C(F)(F)F)C(F)(F)F", "TGI", "61.2 µM"]
]}

Query: Given the entry COc1cc2c(cc1OC)[C@@H]1C(=O)c3cc4c(cc3[C@@H]1N(CCN(C)C)C2=O)OCO4 , report its measured TGI.
Result: > 21.6 µM

Query: Follow-up entry: Cc1nc2ccc(Nc3nc(Cl)nc(Nc4ccc(F)cc4)n3)cc2n1Cc1ccccc1
Result: 21.5 µM

###

test system: U251 CNS; assay: NCI tumour cell line growth inhibition, 48 h
property: TGI (µM)
Answer in µM, number only, no unit symbol.

Examples from the recorded data:
{"columns": ["molecule", "value.units", "TGI"],
 "data": [
  ["Cc1ccc(C2C(C(=O)C(C)(C)C)N2S(=O)(=O)c2ccc(C)cc2)cc1 (stereo not given)", "µM", 42],
  ["C=C1C(=O)OC2C1C(=O)C/C(C)=C/CCC1(C)OC21 (stereo not given)", "µM", 37.7],
  ["COc1ccc([As]=[As]c2ccc(OC)c(NCS(=O)(=O)O)c2)cc1NCS(=O)(=O)O (stereo not given)", "µM", 2.25]
]}

Moving on to the next molecule.
Query: // lookup TGI for CCCCCCCCCCCCCCCCCC(=O)NCC(COP(=O)([O-])OCC[N+](C)(C)C)OC (stereo not given)
Result: 4.04

###

tested on: A498 renal; test: NCI tumour cell line growth inhibition, 48 h
property: TGI

Solved entries (count: 4):
{"columns": ["molecule", "TGI"],
 "data": [
  ["CCOC(=O)C1=C(C)N=C2SC=C(c3ccccc3)N2[C@H]1c1cn[nH]c1-c1ccc(Cl)cc1", "18.2 µM"],
  ["N#CCCN(c1ccc(/C=N/c2nc(-c3ccccc3)cs2)cc1)S(=O)(=O)c1ccccc1", "> 100 µM"],
  ["O=C(c1ccccc1)C(c1ccccc1)C1(O)C(=O)Nc2c(Cl)ccc(Cl)c21 (stereo not given)", "64.6 µM"],
  ["O=C1c2ccccc2C(=O)c2c(Nc3ccc(CCO)cc3)ccc(O)c21", "40.2 µM"]
]}

Query: Dear colleague, I am looking for the recorded TGI of the following molecule: O=C(O)c1ccc(Cc2ccccc2C(=O)O)cc1
Result: > 100 µM

###

tested on: M14 melanoma
// classify into 1 (active), 0 (inactive)

Reference set, count: 4
{"columns": ["compound", "qualitative.label"],
 "data": [
  ["O=C(c1ccccc1)c1c(C(F)(F)F)n([O-])c2ccc(F)cc2[n+]1=O", 0],
  ["CCN(CC)c1ccc(C2=NN(C(C)=O)C(c3cc(OC)c(OC)c(OC)c3)C2)cc1 (stereo not given)", 1],
  ["CCN(CC)CCOc1cccc2nc3c(cc12)Cn1c-3cc2c(c1=O)COC(=O)C2(O)CC (stereo not given)", 0],
  ["CCN(Cc1ccccc1F)c1ccc(CO)c(Cl)c1", 0]
]}

Query: What outcome does the record of this test show for COc1ccc([As]=[As]c2ccc(OC)c(NCS(=O)(=O)O)c2)cc1NCS(=O)(=O)O (stereo not given) ?
Result: 0

###

Overview of recorded TGI for various compounds
system: DMS 114 small cell lung; test: NCI tumour cell line growth inhibition, 48 h

Please review the following examples before continuing.
{"columns": ["compound", "result"],
 "data": [
  ["CCO.CCO.Oc1ccc(Nc2ncns2)cc1.Oc1ccc(Nc2ncns2)cc1.[Ti]", "67.5 µM"],
  ["CC(C)(c1cn(Cc2ccccc2)c2ccccc12)c1cn(Cc2ccccc2)c2ccccc12", "> 100 µM"],
  ["CC(C)=CC1CC(=O)C1(C)Sc1ccccc1 (stereo not given)", "32.6 µM"]
]}

Query: What reported TGI corresponds to Clc1ccc(C2=Nc3ccccc3SC(c3cccs3)C2)cc1 (stereo not given) on DMS 114 small cell lung?
Result: 31.2 µM

Query: # iterate: CCCCCCCCCCCC[C@@H](O)[C@H]1CC[C@H]([C@H](O)CCCC[C@H](O)CCCCC[C@@H](O)CC2=C[C@H](C)OC2=O)O1
Result: 0.371 µM

###

tested on: SK-MEL-5 melanoma; experiment: NCI tumour cell line growth inhibition, 48 h
property: TGI

Answered examples (4):
{"columns": ["compound", "result"],
 "data": [
  ["COc1ccc(N2C(=O)/C(=C/c3ccc(N(CCC#N)CCC#N)cc3C)N=C2/C=C\\c2ccccc2)cc1", "> 100 µM"],
  ["CCCCCCCCCCCCCCCCCC(=O)NCC(COP(=O)([O-])OCC[N+](C)(C)C)OC (configuration not stated)", "29.5 µM"],
  ["CCN(CC)c1ccc(C2=NN(C(C)=O)C(c3cc(OC)c(OC)c(OC)c3)C2)cc1 (configuration not stated)", "5.05 µM"],
  ["CN(C)C(=O)N(CCCl)N=O", "> 100 µM"]
]}

Query: Given the entry CN(C)CCOc1ccc2[nH]c(C(=O)N3CC(CCl)c4c3cc(NC(=O)OCc3ccc([N+](=O)[O-])cc3)c3ccccc43)cc2c1 (configuration not stated) , report its measured TGI.
Result: 2.76 µM

Query: Next compound: COc1cc2c(cc1OC)[C@@H]1C(=O)c3cc4c(cc3[C@@H]1N(CCN(C)C)C2=O)OCO4
Result: 0.935 µM

###

system: UACC-257 melanoma; test: NCI tumour cell line growth inhibition, 48 h
property: TGI

Consider the reported TGI for these compounds:
{"columns": ["compound", "result"],
 "data": [
  ["CCOC(NC(=O)CC)(C(F)(F)F)C(F)(F)F", "> 100 µM"],
  ["Cc1ccccc1NC(=O)c1cc2cc(N=Nc3ccccc3C(=O)O)ccc2oc1=O", "24.1 µM"],
  ["CC1(c2ccccc2)N=C(C(N)=O)c2[nH]cnc2N1 (stereo not given)", "> 100 µM"],
  ["COc1ccc(N[C@H]([C@@H](c2ccccc2)S(=O)c2ccc(C)cc2)C(F)(F)F)cc1 (stereo not given in full)", "> 100 µM"]
]}

Query: Would you kindly share the measured TGI for COC1C(O)CC(OC2CC(OC3CC(O[C@@H]4C(=O)c5c(cc6cc(OC7CC(OC8CC(O)C(O)C(C)O8)C(O)C(C)O7)c(C)c(O)c6c5O)CC4[C@H](OC)C(=O)C(C)=O)OC(C)C3O)OC(C)C2O)OC1C (stereo not given in full) ?
Result: 0.0414 µM

Query: Next: Cc1cc(C(=O)CBr)c(CN2C(=O)c3ccccc3C2=O)c(=O)n1C
Result: 33.5 µM

Query: Now give it for NC1CCCCC1 too.
Result: > 562 µM

Query: Same question, CCN(CC)c1ccc(C2=NN(C(C)=O)C(c3cc(OC)c(OC)c(OC)c3)C2)cc1 (stereo not given) this time
Result: 39.8 µM

Query: Try this compound too: Cc1csc(-n2nc(C)cc2C)n1
Result: > 100 µM

###

tested on: RPMI-8226 leukemia
Pick one and only one: class 1 = active, class 0 = inactive

Known results for molecules:
{"columns": ["structure.notation", "qualitative.label"],
 "data": [
  ["COc1cc2c3c(n(CCCn4ccnc4)c(=O)c2cc1OC)-c1cc2c(cc1C3=O)OCO2", "class 1"],
  ["O=C1c2ccccc2-c2c1c1ccc([N+](=O)[O-])cc1c(=O)n2CCCN1CCOCC1", "class 1"],
  ["Nc1ncc(-c2ccc3ncnc(N4CCc5ccc(Cl)cc54)c3c2)cn1", "class 0"],
  ["O=C(O)CN(CCN(CC(=O)O)CC(=O)O)CC(=O)O", "class 0"],
  ["CCN(Cc1ccccc1F)c1ccc(CO)c(Cl)c1", "class 0"]
]}

Query: Assay result, entry O=C1c2ccccc2C(=O)c2c(Nc3ccc(CCO)cc3)ccc(O)c21 — outcome?
Result: class 0

Query: Next entry: Cc1ccc(C(=Nc2ccccc2)N=P(c2ccccc2)(c2ccccc2)c2ccccc2)cc1
Result: class 0

###

system: MDA-MB-435; assay: NCI tumour cell line growth inhibition, 48 h
property: TGI (µM)
// note: answer is a bare numeric in µM

Some molecules with known TGI results, for comparison:
{"columns": ["molecule", "TGI [µM]"],
 "data": [
  ["CN(C)c1ccc(/C=C2\\C[C@H]3[C@@H]4CCc5cc(OCCN6CCCC6)ccc5[C@H]4CC[C@]3(C)[C@H]2O)cc1", 39],
  ["COC1C(O)CC(OC2CC(OC3CC(O[C@@H]4C(=O)c5c(cc6cc(OC7CC(OC8CC(O)C(O)C(C)O8)C(O)C(C)O7)c(C)c(O)c6c5O)CC4[C@H](OC)C(=O)C(C)=O)OC(C)C3O)OC(C)C2O)OC1C (stereo partly drawn)", 0.0343],
  ["COc1cc2c3c(n(CCCn4ccnc4)c(=O)c2cc1OC)-c1cc2c(cc1C3=O)OCO2", 1.67]
]}

Now for another entry.
Query: Form field: reported TGI of COc1oc(C(=O)NC2CCCCC2)c(-c2ccc(Cl)cc2)c1S(=O)(=O)c1ccccc1
Result: 28.9
